Values from the supplement of paper PMC7125110

B1: glmS ribozyme (parent)
chain: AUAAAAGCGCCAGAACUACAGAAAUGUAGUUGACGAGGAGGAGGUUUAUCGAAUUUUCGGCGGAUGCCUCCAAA

variants of: B1; experiment: self-cleavage kobs at 10000 uM GlcN6P; higher = faster cleavage; RNA array; settings: with glucosamine-6-phosphate
Fewer inactive variants are shown than the library holds.
property label: self-cleavage kobs at 10000 uM GlcN6P (s⁻¹)

mutant_code="A15G U65G" comparison_symbol== result_number=0.00279
mutant_code="C8A C67U" comparison_symbol=< result_number=1e-05
mutant_code="G13U A14U" comparison_symbol== result_number=0.00066
mutant_code="U31G U54C C70G" comparison_symbol== result_number=0.000117
mutant_code="C8G C10A G60U" comparison_symbol=< result_number=1e-05
mutant_code="A33C A39G U69G" comparison_symbol=< result_number=1e-05
mutant_code="G9U C10G" comparison_symbol=< result_number=1e-05
mutant_code="G32A U56A" comparison_symbol== result_number=0.000619
mutant_code="G29U A53C C68U" comparison_symbol== result_number=3.37e-05
mutant_code="G7U G9A A14U C50G" comparison_symbol== result_number=0.000226
mutant_code="U54G G62C U69C" comparison_symbol=< result_number=1e-05
mutant_code="G29U C71U" comparison_symbol== result_number=0.00363
mutant_code="A12U U31C" comparison_symbol== result_number=0.0101
mutant_code="A14U U69G" comparison_symbol== result_number=3.9e-05
mutant_code="G51C G60U" comparison_symbol=< result_number=1e-05
mutant_code="C50G C70A C71G" comparison_symbol== result_number=6.95e-05
mutant_code="A36U A39C" comparison_symbol=< result_number=1e-05
mutant_code="A12U C70A" comparison_symbol== result_number=0.00179
mutant_code="G37A A42G C71G" comparison_symbol== result_number=8.16e-05
mutant_code="A6C U47A" comparison_symbol== result_number=6.15e-05
mutant_code="A6C A12C" comparison_symbol== result_number=4.11e-05
mutant_code="U55C U56A" comparison_symbol== result_number=0.0148
mutant_code="A6C G62C" comparison_symbol=< result_number=1e-05
mutant_code="G43A A64G" comparison_symbol== result_number=4.35e-05
mutant_code="G32C A53G" comparison_symbol== result_number=0.000119
mutant_code="G13A A15C G38U A48G A52C" comparison_symbol=< result_number=1e-05
mutant_code="G13U U30A C58U G59U" comparison_symbol=< result_number=1e-05
mutant_code="A39G C58U" comparison_symbol== result_number=5.43e-05
mutant_code="G29C C67A" comparison_symbol== result_number=0.000363
mutant_code="G32C G44U U56A" comparison_symbol=< result_number=1e-05
mutant_code="U47C C70A" comparison_symbol== result_number=0.000264
mutant_code="G7A C8A U49G" comparison_symbol=< result_number=1e-05
mutant_code="G9U U30C U31C G43A U65A C68U C71A" comparison_symbol=< result_number=1e-05
mutant_code="U57G G59U" comparison_symbol=< result_number=1e-05
mutant_code="C11A C34G" comparison_symbol=< result_number=1e-05
mutant_code="G9U C34G C70G" comparison_symbol=< result_number=1e-05
mutant_code="C34G A64G" comparison_symbol=< result_number=1e-05
mutant_code="C8U A12G C50U C68G" comparison_symbol== result_number=6.84e-05
